System: A375
protocol_details: WST-1 cell proliferation assay (Example 2)
Assay type: cell-based
assay_context: Homo sapiens, A-375, 48 h
reported_metric: pIC50
Scale for pIC50: -log10 of concentration given in mol/L; no unit attached.

Suppose we examine the compound COC(=O)[C@H]1[C@@H](O)[C@@]2(O)c3c(OC)cc(O[C@@H]4O[C@@H]([C@H](O)CO)CO[C@H]4OC)cc3O[C@@]2(c2ccc(OC)cc2)[C@@H]1c1ccccc1 [Silvestrol] ; what pIC50 value has been reported?
7.68

---

Test system: A2058
protocol_details: Short-term growth-inhibition assay (Example 1)
Type: cell-based
assay_context: Homo sapiens; A2058 cell line; read-out: half-maximum inhibitory concentration (IC50)
reported_metric: IC50 (µM)
Provide only the numeric value, understood in µM.

Suppose we examine the molecule CCCS(=O)(=O)Nc1ccc(F)c(C(=O)c2c[nH]c3ncc(Cl)cc23)c1F [PLX-4720] ; what IC50 value has been reported?
2.4

The measured values listed here are drawn from patent US20240393340A1.
